# Target Under Test: Platelet-derived growth factor receptor beta (Homo sapiens) (UniProt P09619)
# Sequence (P09619 whole entry, the tested form may be a part): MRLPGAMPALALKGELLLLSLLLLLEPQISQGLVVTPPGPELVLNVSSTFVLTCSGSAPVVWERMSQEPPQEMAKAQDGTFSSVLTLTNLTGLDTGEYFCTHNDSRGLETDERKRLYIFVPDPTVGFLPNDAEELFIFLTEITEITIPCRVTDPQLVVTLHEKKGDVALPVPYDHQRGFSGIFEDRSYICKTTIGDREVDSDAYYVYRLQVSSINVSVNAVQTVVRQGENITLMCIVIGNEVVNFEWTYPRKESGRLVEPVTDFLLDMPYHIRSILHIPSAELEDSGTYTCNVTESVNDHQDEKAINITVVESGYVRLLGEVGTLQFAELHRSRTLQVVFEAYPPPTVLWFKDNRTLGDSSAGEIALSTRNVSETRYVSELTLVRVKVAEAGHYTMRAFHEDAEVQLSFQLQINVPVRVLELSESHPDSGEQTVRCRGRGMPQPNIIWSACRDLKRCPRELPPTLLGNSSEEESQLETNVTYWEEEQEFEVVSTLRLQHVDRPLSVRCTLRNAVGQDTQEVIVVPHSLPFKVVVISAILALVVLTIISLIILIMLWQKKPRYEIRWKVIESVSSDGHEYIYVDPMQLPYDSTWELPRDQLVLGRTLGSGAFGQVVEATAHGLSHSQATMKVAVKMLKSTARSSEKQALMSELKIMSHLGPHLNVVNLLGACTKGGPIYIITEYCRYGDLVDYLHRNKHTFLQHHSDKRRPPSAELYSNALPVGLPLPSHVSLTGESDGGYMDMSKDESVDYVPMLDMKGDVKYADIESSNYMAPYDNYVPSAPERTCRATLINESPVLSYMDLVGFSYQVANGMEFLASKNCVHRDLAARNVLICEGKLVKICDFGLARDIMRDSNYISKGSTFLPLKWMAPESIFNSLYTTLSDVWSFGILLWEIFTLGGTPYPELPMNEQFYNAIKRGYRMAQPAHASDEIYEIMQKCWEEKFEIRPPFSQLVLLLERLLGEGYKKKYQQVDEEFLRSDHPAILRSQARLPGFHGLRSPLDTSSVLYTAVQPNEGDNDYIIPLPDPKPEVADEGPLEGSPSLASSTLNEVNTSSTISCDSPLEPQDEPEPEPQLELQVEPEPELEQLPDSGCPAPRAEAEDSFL
# Method Notes: Selectivity for PDGFRbeta over (KDR) kinase insert domain receptor
Readout Type: Selectivity
Respond using a number only.

Worked set:
{"columns": ["Chemical Smiles", "Target Under Test", "Selectivity"],
 "data": [
  ["Cc1cccc(Nc2ncc(-c3ccccc3)s2)n1", "Platelet-derived growth factor receptor beta (Homo sapiens) (UniProt P09619)", 0.3],
  ["Cc1ccnc(Nc2ncc(-c3ccccc3)s2)c1", "Platelet-derived growth factor receptor beta (Homo sapiens) (UniProt P09619)", 0.5],
  ["Cc1ccc(Nc2ncc(-c3ccccc3)s2)nc1", "Platelet-derived growth factor receptor beta (Homo sapiens) (UniProt P09619)", 0.3],
  ["N#Cc1cnc(Nc2ccccn2)s1", "Platelet-derived growth factor receptor beta (Homo sapiens) (UniProt P09619)", 68]
]}

Value of measured Selectivity for the entry Clc1ccc(Nc2ncc(-c3ccccc3)s2)nc1 : 0.1

Value of measured Selectivity for the entry Cc1cccnc1Nc1ncc(-c2ccccc2)s1 : 1

Selectivity for Brc1cccc(Nc2ncc(-c3ccccc3)s2)n1 is 0.3

----------
# Target Under Test: Fibroblast growth factor receptor 1 (Homo sapiens) (UniProt P11362)
# Sequence (P11362 22-822 limits assumed): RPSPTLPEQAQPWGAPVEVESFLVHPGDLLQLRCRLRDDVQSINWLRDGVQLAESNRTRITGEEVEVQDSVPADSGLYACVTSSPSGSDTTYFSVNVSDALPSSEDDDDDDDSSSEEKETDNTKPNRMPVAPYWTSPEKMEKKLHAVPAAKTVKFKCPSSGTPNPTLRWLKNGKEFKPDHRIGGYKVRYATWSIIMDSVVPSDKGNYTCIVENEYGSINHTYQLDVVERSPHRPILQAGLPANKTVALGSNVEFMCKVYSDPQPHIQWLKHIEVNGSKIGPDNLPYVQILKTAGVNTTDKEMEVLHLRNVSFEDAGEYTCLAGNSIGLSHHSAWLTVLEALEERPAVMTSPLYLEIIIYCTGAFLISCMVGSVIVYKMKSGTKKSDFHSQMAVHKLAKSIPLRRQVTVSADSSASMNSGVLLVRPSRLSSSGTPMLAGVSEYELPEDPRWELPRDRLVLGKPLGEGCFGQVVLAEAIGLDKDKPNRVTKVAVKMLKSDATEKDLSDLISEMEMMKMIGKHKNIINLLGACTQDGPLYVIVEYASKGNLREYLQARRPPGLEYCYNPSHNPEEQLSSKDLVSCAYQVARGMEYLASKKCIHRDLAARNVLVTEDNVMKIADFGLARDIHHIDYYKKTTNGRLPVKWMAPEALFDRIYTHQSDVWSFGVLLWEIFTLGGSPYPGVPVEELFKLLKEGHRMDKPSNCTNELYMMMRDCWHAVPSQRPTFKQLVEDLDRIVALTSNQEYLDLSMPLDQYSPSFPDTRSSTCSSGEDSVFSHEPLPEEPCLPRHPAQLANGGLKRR
# Method Notes: Selectivity for Fibroblast growth factor receptor 1 over (KDR) kinase insert domain receptor
Readout Type: Selectivity

{"columns": ["Chemical Smiles", "Selectivity"],
 "data": [
  ["Cc1ccc(Nc2ncc(-c3ccccc3)s2)nc1", 220]
]}

Fibroblast growth factor receptor 1 (Homo sapiens) (UniProt P11362) Selectivity of Cc1cccc(Nc2ncc(-c3ccccc3)s2)n1 is 600

Hey, Fibroblast growth factor receptor 1 (Homo sapiens) (UniProt P11362) data for N#Cc1cnc(Nc2ccccn2)s1 : Selectivity came out at 214

Measured Selectivity for this entry Cc1cccnc1Nc1ncc(-c2ccccc2)s1 on Fibroblast growth factor receptor 1 (Homo sapiens) (UniProt P11362): 820

Item Cc1ccnc(Nc2ncc(-c3ccccc3)s2)c1 was tested on Fibroblast growth factor receptor 1 (Homo sapiens) (UniProt P11362); the reported Selectivity is 220

// compound O=C(Nc1ncc(-c2ccccc2)s1)c1ccccc1 , assay Fibroblast growth factor receptor 1 (Homo sapiens) (UniProt P11362), Selectivity value: 72

Note to self: Selectivity of Clc1ccc(Nc2ncc(-c3ccccc3)s2)nc1 with Fibroblast growth factor receptor 1 (Homo sapiens) (UniProt P11362) was > 580

Entry Brc1cccc(Nc2ncc(-c3ccccc3)s2)n1 ; assay system Fibroblast growth factor receptor 1 (Homo sapiens) (UniProt P11362); Selectivity recorded at 1620

Form field, Selectivity with Fibroblast growth factor receptor 1 (Homo sapiens) (UniProt P11362), item CCCCN(C)c1ccc(/N=N/c2ncc([N+](=O)[O-])s2)c(C)c1 : > 130

----------
Notes on pIC50 obtained with Vascular endothelial growth factor receptor 2 (Homo sapiens, UniProt P35968).
Sequence (P35968 whole entry): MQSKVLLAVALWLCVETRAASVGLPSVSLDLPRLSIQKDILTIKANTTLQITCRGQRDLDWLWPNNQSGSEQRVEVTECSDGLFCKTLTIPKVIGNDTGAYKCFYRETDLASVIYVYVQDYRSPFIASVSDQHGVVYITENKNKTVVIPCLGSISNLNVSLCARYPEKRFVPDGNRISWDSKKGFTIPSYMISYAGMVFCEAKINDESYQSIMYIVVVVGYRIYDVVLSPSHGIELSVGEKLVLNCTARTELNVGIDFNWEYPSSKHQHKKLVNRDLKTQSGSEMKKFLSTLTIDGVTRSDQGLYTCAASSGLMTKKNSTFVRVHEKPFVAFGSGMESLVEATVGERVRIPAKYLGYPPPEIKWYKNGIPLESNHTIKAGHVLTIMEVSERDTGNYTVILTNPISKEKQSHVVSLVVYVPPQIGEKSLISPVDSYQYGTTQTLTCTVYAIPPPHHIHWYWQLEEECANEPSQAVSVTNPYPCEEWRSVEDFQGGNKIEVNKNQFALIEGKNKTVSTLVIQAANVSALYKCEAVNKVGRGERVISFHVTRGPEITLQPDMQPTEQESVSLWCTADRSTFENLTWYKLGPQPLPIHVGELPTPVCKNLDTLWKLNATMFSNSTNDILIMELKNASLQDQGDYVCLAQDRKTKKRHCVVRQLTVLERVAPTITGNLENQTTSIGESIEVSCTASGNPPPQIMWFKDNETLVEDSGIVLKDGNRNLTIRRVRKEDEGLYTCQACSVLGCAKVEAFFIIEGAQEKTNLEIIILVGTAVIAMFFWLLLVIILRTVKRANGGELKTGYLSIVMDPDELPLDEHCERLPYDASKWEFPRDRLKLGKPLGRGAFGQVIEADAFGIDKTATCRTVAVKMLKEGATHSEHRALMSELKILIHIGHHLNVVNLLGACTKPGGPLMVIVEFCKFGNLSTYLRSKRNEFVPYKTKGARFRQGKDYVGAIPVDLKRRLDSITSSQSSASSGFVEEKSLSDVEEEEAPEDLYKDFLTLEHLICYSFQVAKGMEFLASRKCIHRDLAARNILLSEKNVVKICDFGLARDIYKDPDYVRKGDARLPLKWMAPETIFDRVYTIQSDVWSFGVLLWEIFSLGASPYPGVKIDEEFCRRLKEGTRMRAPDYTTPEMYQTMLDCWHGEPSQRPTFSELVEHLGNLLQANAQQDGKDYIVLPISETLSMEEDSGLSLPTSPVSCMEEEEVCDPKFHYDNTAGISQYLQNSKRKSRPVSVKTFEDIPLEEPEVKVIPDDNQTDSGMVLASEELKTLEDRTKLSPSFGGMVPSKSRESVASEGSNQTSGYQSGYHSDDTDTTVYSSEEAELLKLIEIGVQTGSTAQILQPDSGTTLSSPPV
Units for pIC50: none; it is -log10 of a concentration expressed in mol/L.

Recorded pIC50, per entry:
{"columns": ["Chemical Smiles", "pIC50"],
 "data": [
  ["COc1ccnc(Nc2ncc(-c3ccccc3)s2)c1", 7.96],
  ["COc1cccc(Nc2ncc(-c3ccccc3)s2)n1", 8.52],
  ["c1ccc(-c2cnc(Nc3ccncc3)s2)cc1", 6.59]
]}

Item COc1cccnc1Nc1ncc(-c2ccccc2)s1 was tested on Vascular endothelial growth factor receptor 2 (Homo sapiens, UniProt P35968); the reported pIC50 is 7.34

# Cc1ccc(Nc2ncc(-c3ccccc3)s2)nc1 with Vascular endothelial growth factor receptor 2 (Homo sapiens, UniProt P35968): pIC50 is 7.72

// assay Vascular endothelial growth factor receptor 2 (Homo sapiens, UniProt P35968), entry N#Cc1cnc(Nc2ccccn2)s1 , pIC50 value = 7.44

Result for Brc1cccc(Nc2ncc(-c3ccccc3)s2)n1 , tested on Vascular endothelial growth factor receptor 2 (Homo sapiens, UniProt P35968), pIC50: 7.85
